# Test system: HOP-92 NSCLC
# Test summary: NCI tumour cell line growth inhibition, 48 h
Endpoint name: GI50

Some entries whose results are on file:
Compound string: NCCCNc1nc2ccccc2c2c(=O)c3cc(OC(F)(F)F)ccc3sc12
Target: HOP-92 NSCLC
Test value: 1080 nM
//
Compound string: COCCOc1cc(F)c2c(Nc3ccc(NC(=O)Cn4cc(C(C)C)nn4)cc3)ncnc2c1
Target: HOP-92 NSCLC
Test value: 5990 nM
//
Compound string: O=[N+]([O-])c1ccc(C=C2C(Cl)=C(Cl)C(Cl)=C2Cl)cc1
Target: HOP-92 NSCLC
Test value: 2050 nM
//
Compound string: COC(=O)/C=C/c1cc(O)c2oc(-c3ccc(O)c(O)c3)c(C(=O)OC)c2c1
Target: HOP-92 NSCLC
Test value: 1570 nM

Moving on to the next compound.
Simply: `O=S(=O)(Nc1cc(F)cc(Cl)c1)c1ccc(-c2cnc(C3CC3)o2)cc1` , HOP-92 NSCLC, GI50 = 979 nM

----------
# System: UACC-257 melanoma
# Test summary: NCI tumour cell line growth inhibition, 48 h
Consider the following compounds and their measured TGI readings.

Compound: Cn1cc(C2=C(c3ccc4ccccc4c3)C(=O)NC2=O)c2ccccc21
TGI: > 25 µM

Result for `Ic1ccc(Nc2nc3nonc3nc2Nc2ccc(I)cc2)cc1` , tested on UACC-257 melanoma, TGI: 0.772 µM

Measured on UACC-257 melanoma, `C=C(C)[C@@]12OC3(/C=C/C=C/CCCCC)O[C@@H]1[C@@H]1[C@@H]4O[C@]4(CO)[C@@H](O)[C@]4(O)C(=O)C(C)=C[C@H]4[C@@]1(O3)[C@H](C)[C@H]2OC(=O)c1ccccc1` has a documented TGI of 21.5 µM

Lab note: compound CC(=O)NC1C(OCc2ccccc2)OC(CO)C(O)C1OC(C)C(=O)NC(C)C(=O)NC(CCC(=O)NCCCNc1c2ccccc2nc2cccc([N+](=O)[O-])c12)C(N)=O (configuration not stated) tested on UACC-257 melanoma; recorded TGI was 4.71 µM

Readout TGI for `O=C(Nc1nc2ncn(CCI)c2c(=O)[nH]1)c1ccccc1` , test system UACC-257 melanoma, was > 100 µM

The value of TGI recorded for `Oc1ccc(Cl)cc1Cc1cc(Cl)cc(Cl)c1O` when tested on UACC-257 melanoma reads 32.5 µM

Record for C[As](C)SC1OC(CO)C(O)C1O (configuration not stated) under target or system UACC-257 melanoma: TGI reported as 13.6 µM

----------
# TGI values compiled below
# System: OVCAR-4 ovarian
# Test summary: NCI tumour cell line growth inhibition, 48 h

Compound: COc1ccc(C2CC(=O)CC(c3ccc(OC)cc3)C23C(=O)NC(=O)NC3=O)cc1 (centres undefined)
TGI: > 100 µM

Form: item `Cc1cc(N(CCC#N)CCC#N)ccc1/C(N=Nc1ccc([N+](=O)[O-])cc1)=N\NC(=O)c1cc(Cl)ccc1C(=O)c1ccccc1` ; test system OVCAR-4 ovarian; TGI: 95 µM

Record Cc1cc(=O)[nH]c(NN2C(Cl)C(=O)C2c2cccc(O)c2)n1 (centres undefined) ; system OVCAR-4 ovarian; TGI = > 100 µM

The compound `C[C@]12CC[C@H](O)CC1=CC[C@@H]1[C@@H]2CC[C@]2(C)C(=O)[C@@H](N3CCOCC3)C[C@@H]12` on OVCAR-4 ovarian: TGI was > 100 µM
